System: CP250
ASSAY DETAILS: qHTS profiling for inhibitors of Plasmodium falciparum proliferation (AID 504749); also: nearly all actives have a fitted effect of over 60% in size; also: potency is read from the fitted curve at half-maximal effect
DETAILS: P. falciparum in erythrocytes, SYBR Green DNA, 72 h; series mostly up to 28.7 µM
Results filed as inconclusive are left out. The source made the active and inactive calls. Calls follow the shape of the dose curve; as a rule, active = well fitted inhibition curve with a large enough effect; inconclusive = small, poorly fitted or top-dose-only effect; inactive = flat fitted curve, though single readings scatter.
MEASUREMENT NAME: Potency

INSERT INTO measurements (compound, system, reported) VALUES
  ('CC(C)Nc1ccc(Nc2ccccc2)cc1', 'CP250', '5.01 µM (active)'),
  ('ClCC1CO1 (centres undefined)', 'CP250', 'inactive'),
  ('C[N+]1(C)CCCCC1COC(=O)C(O)(c1ccccc1)c1ccccc1 (centres undefined)', 'CP250', 'inactive'),
  ('CN1C2CCC1CC(OC(c1ccccc1)c1ccc(Cl)cc1)C2 (centres undefined)', 'CP250', '10 µM (active)'),
  ('O=Cc1ccco1', 'CP250', 'inactive'),
  ('CCC1C(C)=NN=C(c2ccc(OC)c(OC)c2)c2cc(OC)c(OC)cc21 (centres undefined)', 'CP250', 'inactive'),
  ('ClC(Cl)(Cl)Cl', 'CP250', 'inactive'),
  ('CCCC(C)(COC(N)=O)COC(=O)NC1CC1 (centres undefined)', 'CP250', 'inactive'),
  ('O=[N+]([O-])c1cc(I)c(O)c(I)c1', 'CP250', 'inactive');

----------
ASSAY DETAILS: Primary qHTS for inhibitors of nuclear receptor binding SET domain protein 2 (NSD2) in an RCH-ACV wild type WT cells (2C) (AID 1645877); also: nearly all actives have a fitted effect of over 70% in size
DETAILS: RCH-ACV (leukaemia line) NSD2 WT (2C) viability, CellTiter-Glo, 72 h; series mostly up to 44.9 µM
Inconclusive results are not listed. Activity calls are given as the source filed them. Calls follow the shape of the dose curve; as a rule, active = well fitted inhibition curve with a large enough effect; inconclusive = small, poorly fitted or top-dose-only effect; inactive = no such curve, though single readings can be large or run the other way.
Outcome codes: active, inactive

INSERT INTO measurements (compound, classification) VALUES
  ('COC1C(O)C(C)OC(OC2C(CO)O[C@@H](O[C@@H]3CC4CCC5C(CC[C@]6(C)[C@@H](C7=CC(=O)OC7)CC[C@]56O)[C@@]4(C)[C@H](O)C3)C(O)C2O)C1O (stereo partly specified)', 'active'),
  ('CCc1[nH]c2ccc(OC)cc2c1CCN(C)C', 'inactive'),
  ('CN1[C@@H]2CC[C@H]1CC(OC(=O)C1C=Nc3ccccc31)C2 (stereo partly specified)', 'inactive'),
  ('CC(CCc1ccc(O)cc1)O[C@@H]1O[C@H](CO[C@H]2OC[C@](O)(CO)[C@H]2O)[C@@H](O)[C@H](O)[C@H]1O (stereo partly specified)', 'inactive'),
  ('COC(=O)N1CCN(C(=O)Cc2ccc(Cl)c(Cl)c2)[C@@H](CN2CCCC2)C1', 'inactive'),
  ('C/C(=C\c1csc(C)n1)[C@@H]1C[C@@H]2O[C@]2(C)CCC[C@H](C)[C@H](O)[C@@H](C)C(=O)C(C)(C)[C@@H](O)CC(=O)O1', 'active'),
  ('O=C(N1CCOCC1)N1CCN(c2ccc(Cl)cc2)CC1', 'inactive'),
  ('COc1cc2c(cc1OC)[C@@]13CCN4CC5=CCO[C@H]6CC(=O)N2[C@H]1[C@H]6[C@H]5C[C@H]43', 'inactive'),
  ('C[C@H]1C(=O)O[C@H]2[C@H](O)[C@]34C5OC(=O)[C@]3(O[C@@H]3OC(=O)[C@H](O)C34[C@H](C(C)(C)C)[C@H]5O)C12O (stereo partly specified)', 'inactive'),
  ('CO[C@H]1[C@H](O)[C@H](O[C@H]2CC[C@]3(C)C4CC[C@]5(C)[C@H](C6=CC(=O)OC6)CC[C@]5(O)C4CC[C@@H]3C2)O[C@@H](C)[C@@H]1O (stereo partly specified)', 'active'),
  ('C[CH2][Hg][S]c1ccccc1C(=O)O', 'active'),
  ('COC(=O)C1(C)CCC(=O)C2(C)c3c(O)cc(C(C)C)cc3C(O)C(OC(C)=O)C12 (stereo unspecified)', 'inactive'),
  ('COC1=CC(=O)O[C@@H](CCc2ccccc2)C1', 'inactive'),
  ('C[C@]12CC[C@H]3[C@@H](CC[C@@]45O[C@@H]4C(O)=C(C#N)C[C@]35C)[C@@H]1CC[C@@H]2O', 'active'),
  ('CCN1C[C@]2(OC(=O)c3ccccc3NC(C)=O)CC[C@H](OC)[C@@]34[C@@H]2C[C@@H]([C@@H]13)[C@@]1(O)C[C@H](OC)[C@H]2C[C@@H]4[C@]1(O)[C@H]2OC', 'inactive'),
  ('CC(=O)OC1CC(O)C2(C)C(CC(OC(C)=O)C3(C)C2CCC2(C)C(c4ccoc4)C(=O)C4OC423)C1(C)C (stereo unspecified)', 'inactive');

Taken from PubChem BioAssay (NCATS).
